Entry source: paper PMC7997574

# PROTOCOL_DESCRIPTION: In vivo pharmacokinetic study in male CD1 mice
# CONDITION_PARAMETERS: mouse, iv, brain, 3 mg kg^–1 i.v.
MEASURE_NAME: half-life at 24 h (h)
// note: answer is a bare numeric in h

Qu. Entry CC(C)CNC(=O)n1c(=O)oc2cc(C3CCN(C)CC3)ccc21 [22m] has what half-life at 24 h?
Ans. 1.01

* * *

# PROTOCOL_DESCRIPTION: Plasma and brain concentrations in 4L;C* mice
# Type: in vivo, mouse
# CONDITION_PARAMETERS: both sexes, 4L;C* (C57BL/6 J/129SvEV), mouse, plasma, ip, 30 mg kg^–1, 4L;C* mice, 30 mg kg^–1 i.p., 1 h after last dose (day 14); read-out: Cp,u (μM) plasma unbounded concentration
MEASURE_NAME: concentration at 1 h (µM)
// note: answer is a bare numeric in µM

Qu. Entry CC(C)CNC(=O)n1c(=O)oc2cc(C3CCN(C)CC3)ccc21 [22m] has what concentration at 1 h?
Ans. 0.42

* * *

# PROTOCOL_DESCRIPTION: In vivo pharmacokinetic study in male CD1 mice
# CONDITION_PARAMETERS: mouse, iv, CSF, 3 mg kg^–1 i.v.
MEASURE_NAME: Cmax at 24 h (µg/mL)
// note: answer is a bare numeric in µg/mL

Qu. Entry CC(C)CNC(=O)n1c(=O)oc2cc(C3CCN(C)CC3)ccc21 [22m] has what Cmax at 24 h?
Ans. 0.0716

* * *

# PROTOCOL_DESCRIPTION: In vivo pharmacokinetic study in male CD1 mice
# CONDITION_PARAMETERS: mouse, po, CSF, 10 mg kg^–1 p.o.
MEASURE_NAME: AUC at 24 h (ng·h/mL)
// note: answer is a bare numeric in ng·h/mL

Qu. Entry CC(C)CNC(=O)n1c(=O)oc2cc(C3CCN(C)CC3)ccc21 [22m] has what AUC at 24 h?
Ans. 119

* * *

# PROTOCOL_DESCRIPTION: In vivo pharmacokinetic study in male CD1 mice
# CONDITION_PARAMETERS: mouse, iv, plasma, 3 mg kg^–1 i.v.
MEASURE_NAME: half-life at 24 h (min)
// note: answer is a bare numeric in min

Qu. Entry CC(C)CNC(=O)n1c(=O)oc2cc(C3CCN(C)CC3)ccc21 [22m] has what half-life at 24 h?
Ans. 75.6

* * *

# PROTOCOL_DESCRIPTION: In vivo pharmacokinetic study in male CD1 mice
# CONDITION_PARAMETERS: mouse, iv, brain, 3 mg kg^–1 i.v.
MEASURE_NAME: AUC at 24 h (ng·h/mL)
// note: answer is a bare numeric in ng·h/mL

Qu. Entry CC(C)CNC(=O)n1c(=O)oc2cc(C3CCN(C)CC3)ccc21 [22m] has what AUC at 24 h?
Ans. 10100

* * *

# PROTOCOL_DESCRIPTION: In vivo pharmacokinetic study in male CD1 mice
# CONDITION_PARAMETERS: mouse, po, CSF, 10 mg kg^–1 p.o.
MEASURE_NAME: half-life at 24 h
I'd appreciate it if you included the unit after the number.

Qu. Entry CC(C)CNC(=O)n1c(=O)oc2cc(C3CCN(C)CC3)ccc21 [22m] has what half-life at 24 h?
Ans. 1.23 h

* * *

# PROTOCOL_DESCRIPTION: Aqueous kinetic solubility assay
# Assay type: physicochemical
# CONDITION_PARAMETERS: PBS, pH 7.4
Assign class by solubility at 1 h: not lower than 70 µM means Fulfilled; lower than 70 µM means Not fulfilled.

Study these solved cases before continuing.
1) CN1CCC(c2ccc3c(c2)oc(=O)n3C(=O)NCCCCc2ccc(F)cc2)CC1 [22o]    Not fulfilled
2) CC(=O)N1CCC(c2ccc3c(c2)oc(=O)n3C(=O)NCCCCc2ccccc2)CC1 [22i]    Not fulfilled
3) CC(C)CNC(=O)n1c(=O)oc2c(C3CCN(C)CC3)cccc21    Fulfilled
4) CN1CCC(c2ccc3c(c2)oc(=O)n3C(=O)NCCCCc2ccccc2)CC1 [22e]    Fulfilled
5) CC(C)CNC(=O)n1c(=O)oc2cc(C3CCCCN3C)ccc21 (racemic)    Fulfilled

Qu. Identify whether the reported solubility at 1 h of the following compound is 70 µM or greater: CN1CCC(c2ccc3c(c2)oc(=O)n3C(=O)NCCOCc2ccccc2)CC1 [22j]
Ans. Fulfilled

Qu. Identify whether the reported solubility at 1 h of the following compound is 70 µM or greater: CC(C)CNC(=O)n1c(=O)oc2cc(C3CCN(C)CC3)ccc21 [22m]
Ans. Fulfilled

Qu. Identify whether the reported solubility at 1 h of the following compound is 70 µM or greater: CN1CCN(c2ccc3c(c2)oc(=O)n3C(=O)NCCCCc2ccccc2)C(=O)C1 [23k]
Ans. Not fulfilled

Qu. Identify whether the reported solubility at 1 h of the following compound is 70 µM or greater: CC(C)N1CCC(c2ccc3c(c2)oc(=O)n3C(=O)NCCCCc2ccccc2)CC1 [22g]
Ans. Not fulfilled

* * *

# PROTOCOL_DESCRIPTION: Aqueous kinetic solubility assay
# Format: physicochemical
# CONDITION_PARAMETERS: PBS, pH 7.4
MEASURE_NAME: solubility at 1 h

// solved cases for solubility at 1 h follow
1. CN1CCN(c2ccc3c(c2)oc(=O)n3C(=O)NCCCCc2ccccc2)CC1=O [23j]    < 1 µM
2. CC(C)CN1CCC(c2ccc3c(c2)oc(=O)n3C(=O)NCCCCc2ccccc2)CC1 [22h]    < 1 µM

Qu. Entry O=C(NCCCCc1ccccc1)n1c(=O)oc2cc(C3CCN(CC(F)F)CC3)ccc21 [22r] has what solubility at 1 h?
Ans. < 1 µM

Qu. Entry CC(C)CNC(=O)n1c(=O)oc2cc(C3CCCN(C)C3)ccc21 (racemic) [compound 27] has what solubility at 1 h?
Ans. > 250 µM
